Tested on: mTORC1
protocolSummary: Western blot of mTORC1 signaling in H9C2 rat cardiomyocytes
Assay type: cell-based
experimentalSetup: H9C2 cells, western blot, FIGS. 2A, 2B, 2C, 2F
observable: mTORC1 signaling (phosphorylation of mTORC1 targets S6K (T389), 4E-BP1 (S65), ULK1 (S757))

C/C=C(\OC(C)=O)C(=O)OCC = no significant effect
C/C=C1\OC(C)OC1=O (centres unmarked) = no significant effect
CCOC(=O)C(CC)(OCC)OC(C)=O (centres unmarked) = no significant effect
